Each recorded value in this set is attributed to patent US10280169B2.

Biological target: BTK (Homo sapiens)
Sequence (Q06187 whole entry): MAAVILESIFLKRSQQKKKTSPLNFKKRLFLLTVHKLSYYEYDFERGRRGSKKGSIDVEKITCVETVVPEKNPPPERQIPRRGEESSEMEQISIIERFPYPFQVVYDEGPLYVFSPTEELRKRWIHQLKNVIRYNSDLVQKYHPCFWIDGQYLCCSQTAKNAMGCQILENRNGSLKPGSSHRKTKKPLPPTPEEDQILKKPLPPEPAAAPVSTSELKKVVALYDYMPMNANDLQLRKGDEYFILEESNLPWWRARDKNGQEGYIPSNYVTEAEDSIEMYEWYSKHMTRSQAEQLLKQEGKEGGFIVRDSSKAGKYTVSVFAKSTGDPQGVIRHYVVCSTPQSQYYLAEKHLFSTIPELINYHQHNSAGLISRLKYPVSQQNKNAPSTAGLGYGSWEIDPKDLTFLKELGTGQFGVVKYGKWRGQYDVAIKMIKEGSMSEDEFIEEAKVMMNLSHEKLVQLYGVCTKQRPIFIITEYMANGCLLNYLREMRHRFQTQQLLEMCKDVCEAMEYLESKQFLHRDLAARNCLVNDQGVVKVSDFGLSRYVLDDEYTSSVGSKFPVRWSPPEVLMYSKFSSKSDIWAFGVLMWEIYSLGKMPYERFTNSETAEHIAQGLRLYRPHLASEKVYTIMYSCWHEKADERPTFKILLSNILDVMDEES
observation.type: IC50

Could you share which IC50 value was measured for `Cc1cc(-c2ncnc3[nH]c(-c4ccc(C(=O)N5CCOCC5)cc4)cc23)ccc1CNC(=O)c1cnc(C(C)(C)C)s1` ? < 10 nM

Then `Cc1cc(-c2ncnc3[nH]ncc23)ccc1CNC(=O)c1cc2c(s1)CCCC2` ? < 10 nM

Then Cn1cc(-c2cc3c(-c4ccc5c(c4)CCCC5NC(=O)N4CCC(C(C)(C)C)C4)ncnc3[nH]2)cn1 (centres unmarked) ? < 10 nM

Then `Cc1cc(-c2ncnc3[nH]c(-c4cnn5c4CN(C)CC5)cc23)ccc1CNC(=O)c1cnc(C(C)(C)C)s1` ? < 10 nM

Then O=C(NC(CO)c1ccc(-c2ncnc3[nH]ncc23)cc1)c1cc2c(s1)CCCC2 (centres unmarked) ? 10 to 99 nM

###

Target: BTK (Homo sapiens)
Could you please report measured IC50 for the items listed next?

Could you share which IC50 value was measured for Cc1cc(-c2ncnc3cc(-c4cnn(C)c4)[nH]c23)ccc1C(CO)NC(=O)c1cc2c(s1)CCOC2 (stereo not shown) [Example I-45] ? 10 to 99 nM

Then Cc1cc(-c2ncnc3[nH]ccc23)ccc1CNC(=O)c1ccc(C(C)(C)C)cn1 [Example I-1] ? < 10 nM

Then CC(C)(C)c1ccc(C(=O)NCc2ccc(-c3ncnc4[nH]ccc34)cc2C(N)=O)cc1 [Example I-9] ? 1000 to 10000 nM

Then O=C(NCc1ccc(-c2ncnc3[nH]ccc23)cc1)c1ccc2c(n1)CCCC2 [Example I-58] ? 100 to 999 nM

Then CC(NC(=O)c1cc2c(s1)CCCC2)c1ccc(-c2ncnc3[nH]ncc23)cc1C(F)(F)F (stereo not shown) [Example I-135] ? 10 to 99 nM

Then CCC(NC(=O)c1cc2c(s1)CCCC2)c1ccc(-c2ncnc3[nH]ncc23)cc1 (stereo not shown) [Example I-143] ? 100 to 999 nM

Then CC(C)(C)c1ncc(C(=O)N[C@@H]2CCCc3cc(-c4ccnc5[nH]ncc45)cnc32)s1 [Example I-144] ? 100 to 999 nM

Then Cn1cc(-c2cc3c(-c4ccc5c(c4)CCCC5NC(=O)c4cnn(C(C)(C)C)c4)ncnc3[nH]2)cn1 (stereo not shown) [Example I-156] ? < 10 nM

Then Cc1cc(-c2ncnc3[nH]ncc23)ccc1C(C)NC(=O)c1cnc(C(C)(C)C)s1 (stereo not shown) [Example I-128] ? 10 to 99 nM

Then O=C(NC1CCCc2cc(-c3ncnc4[nH]ncc34)ccc21)c1nc2ccccc2s1 (stereo not shown) [Example I-106] ? 10 to 99 nM

Then CC(NC(=O)c1cnc(C(C)(C)C)s1)c1ccc(-c2ncnc3cc(-c4cnn(C)c4)[nH]c23)cc1 (stereo not shown) [Example I-114] ? < 10 nM

Then Cc1cc(-c2ncnc3nc(N4CCOCC4)[nH]c23)ccc1CNC(=O)c1cnc(C(C)(C)C)s1 [Example I-48] ? < 10 nM

Then CC(C)(C)c1ccc(C(=O)NC2CCCc3cc(-c4ncnc5[nH]ccc45)ccc32)cc1 (stereo not shown) [Example I-14] ? 10 to 99 nM

Then O=C(NCc1ccc(-c2ncnc3[nH]ccc23)cc1)c1cc(C(F)(F)F)c(Cl)cn1 [Example I-63] ? 1000 to 10000 nM

Then CC(C)(C)c1ncc(C(=O)N[C@H]2CCCc3cc(-c4ccnc5[nH]ncc45)cnc32)s1 [Example I-152] ? 1000 to 10000 nM

Then O=C(NC1CCCc2cc(-c3ncnc4[nH]ncc34)ccc21)c1ccc(C(F)(F)F)c(Cl)c1 (stereo not shown) [Example I-92] ? 100 to 999 nM

Then O=C(NCc1ccc(-c2ncnc3[nH]ccc23)cc1)c1cc2c(cn1)CCCC2 [Example I-57] ? 1000 to 10000 nM

Then Cc1cc(-c2ccnc3[nH]ccc23)cnc1CNC(=O)c1cc2c(s1)CCCC2 [Example I-126] ? 10 to 99 nM

Then Cn1cc(-c2cc3c(-c4ccc5c(c4)CCCC5NC(=O)N4CC(OC(C)(C)C)C4)ncnc3[nH]2)cn1 (stereo not shown) [Example I-159] ? < 10 nM

Then Cc1cc(-c2ncnc3cc(C4CCN(C)CC4)[nH]c23)ccc1CNC(=O)c1cnc(C(C)(C)C)s1 [Example I-25] ? < 10 nM

Then CC1(C)CCc2nc(C(=O)NC3CCCc4cc(-c5ncnc6[nH]ncc56)ccc43)sc2C1 (stereo not shown) [Example I-136] ? 10 to 99 nM

Then Cc1cc(-c2ncnc3c2cc(-c2cn(C)nc2C)n3C)ccc1CNC(=O)c1cnc(C(C)(C)C)s1 [Example I-28] ? 10 to 99 nM

Then CC(C)(C)c1csc(C(=O)NC2CCCc3cc(-c4ncnc5[nH]ncc45)ccc32)n1 (stereo not shown) [Example I-98] ? < 10 nM

Then Cn1cc(-c2cc3ncnc(-c4ccc5c(c4)CCCC5NC(=O)c4cnc(C(C)(C)C)s4)c3[nH]2)cn1 (stereo not shown) [Example I-37] ? < 10 nM

Then O=C(NCc1ccc(-c2ncnc3[nH]ccc23)cc1)c1cc2c(s1)CCCC2 [Example I-65] ? 10 to 99 nM

Then O=C(NC1CCCc2cc(-c3ncnc4[nH]ccc34)ccc21)c1nc2c(s1)CCCC2 (stereo not shown) [Example I-17] ? 10 to 99 nM

Then Cn1cc(-c2cc3c(-c4ccc5c(c4)CCCCC5NC(=O)N4CC(OC(C)(C)C)C4)ncnc3[nH]2)cn1 (stereo not shown) [Example I-164] ? < 10 nM

Then NC(=O)C(NC(=O)c1cc2c(s1)CCCC2)c1ccc(-c2ncnc3[nH]ncc23)cc1 (stereo not shown) [Example I-151] ? 1000 to 10000 nM

Then CC(C)(C)c1ccc(C(=O)NCc2ccc(-c3ncnc4[nH]ncc34)cc2)cc1 [Example I-84] ? 100 to 999 nM

Then Cc1cc(-c2ncnc3[nH]c(-c4cnn(C)c4)cc23)ccc1C(C)NC(=O)c1cnc(C(C)(C)C)s1 (stereo not shown) [Example I-112] ? < 10 nM

Then Cc1cc(-c2ncnc3nc(N4CCN(C)CC4)[nH]c23)ccc1CNC(=O)c1cnc(C(C)(C)C)s1 [Example I-47] ? < 10 nM
